All values here come from paper PMC3946992.

Target: p48 (Homo sapiens, UniProt P49642, K318A)
Assay: isothermal titration calorimetry
observation_type: pKd
pKd here: minus log base 10 of the concentration, concentration in moles per litre.

Output pKd of O=c1ccn([C@@H]2O[C@H](COP(=O)(O)OP(=O)(O)OP(=O)(O)O)[C@@H](O)[C@H]2O)c(=O)[nH]1
4.31

---

Molecular target: p48 (Homo sapiens, UniProt P49642, H315A)
Sequence (P49642 1-420 H315A): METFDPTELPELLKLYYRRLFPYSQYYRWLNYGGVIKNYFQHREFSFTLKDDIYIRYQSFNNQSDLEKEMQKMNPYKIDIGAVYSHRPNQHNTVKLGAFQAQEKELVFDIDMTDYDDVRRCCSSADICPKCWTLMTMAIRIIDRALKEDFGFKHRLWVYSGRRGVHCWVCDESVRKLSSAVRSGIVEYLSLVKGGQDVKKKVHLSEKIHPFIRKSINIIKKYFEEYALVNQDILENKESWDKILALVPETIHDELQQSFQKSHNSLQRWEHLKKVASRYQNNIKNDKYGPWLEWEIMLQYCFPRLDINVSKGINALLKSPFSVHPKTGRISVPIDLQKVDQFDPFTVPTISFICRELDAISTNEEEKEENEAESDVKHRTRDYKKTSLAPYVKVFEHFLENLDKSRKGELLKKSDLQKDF
Test: isothermal titration calorimetry
Type: binding
observation_type: Kd (µM)
The response must be a number in µM with no trailing unit.

Output Kd of O=c1ccn([C@@H]2O[C@H](COP(=O)(O)OP(=O)(O)OP(=O)(O)O)[C@@H](O)[C@H]2O)c(=O)[nH]1 [UTP]
22

---

Biological target: p48 (Homo sapiens, UniProt P49642, D109N)
Test: isothermal titration calorimetry
observation_type: pKd
pKd here: minus log base 10 of the concentration, concentration in moles per litre.

Under p48 (Homo sapiens, UniProt P49642, D109N), report pKd for O=c1ccn([C@@H]2O[C@H](COP(=O)(O)OP(=O)(O)OP(=O)(O)O)[C@@H](O)[C@H]2O)c(=O)[nH]1 [UTP]
4.13
